assay: Inhibition of NHE1 in human platelet rich plasma assessed as reduction of propionate medium induced platelet swelling measured every 6 secs for 5 mins
MEASURE: log10 EC50 (log10 of the value in nM)
Heads up: the numbers are on a log10 scale; they represent EC50 in nM.

I'd like to know its log10 EC50. The compound in question is `N=C(N)NC(=O)c1ccc(C2CCN(C(=O)c3ccccc3)CC2)c(C(F)(F)F)c1`
2.04

I'd like to know its log10 EC50. The compound in question is `CS(=O)(=O)c1cccc(C(=O)N2CCC(c3ccc(C(=O)NC(=N)N)cc3C(F)(F)F)CC2)c1`
1.70

I'd like to know its log10 EC50. The compound in question is `COc1ccc(C(=O)N2CCC(c3ccc(C(=O)NC(=N)N)cc3C(F)(F)F)CC2)cc1`
2.70

I'd like to know its log10 EC50. The compound in question is `CC(C)C(=O)N1CCC(c2ccc(C(=O)NC(=N)N)cc2C(F)(F)F)CC1`
1.90

I'd like to know its log10 EC50. The compound in question is `Cn1cncc1C(=O)N1CCC(c2ccc(C(=O)NC(=N)N)cc2C(F)(F)F)CC1`
1.79

I'd like to know its log10 EC50. The compound in question is `N=C(N)NC(=O)c1ccc(C2CCN(C(=O)c3ccc(=O)[nH]c3)CC2)c(C(F)(F)F)c1`
1.40

I'd like to know its log10 EC50. The compound in question is `N=C(N)NC(=O)c1ccc(C2CCN(C(=O)c3cccc(Cl)c3)CC2)c(C(F)(F)F)c1`
3.00

I'd like to know its log10 EC50. The compound in question is `CC(C)CC(=O)N1CCC(c2ccc(C(=O)NC(=N)N)cc2C(F)(F)F)CC1`
2.34

I'd like to know its log10 EC50. The compound in question is `CCC(=O)N1CCC(c2ccc(C(=O)NC(=N)N)cc2C(F)(F)F)CC1`
1.49

###

assay: Inhibition of NHE1 in human platelet rich plasma assessed as reduction of propionate medium induced platelet swelling measured every 6 secs for 5 mins
I'd appreciate it if you could supply EC50 values for the items below.
Your answer should be a plain number; it is taken to be in nM.

I'd like to know its EC50. The compound in question is `N=C(N)NC(=O)c1ccc(C2CCN(C(=O)c3ccc(C(F)(F)F)cc3)CC2)c(C(F)(F)F)c1`
539

I'd like to know its EC50. The compound in question is `N=C(N)NC(=O)c1ccc(C2CCN(C(=O)c3ccccn3)CC2)c(C(F)(F)F)c1`
79

I'd like to know its EC50. The compound in question is `CCC(=O)N1CCC(c2cc(C)c(C(=O)NC(=N)N)cc2S(C)(=O)=O)CC1`
88

I'd like to know its EC50. The compound in question is `Cc1cc(C(=O)N2CCC(c3ccc(C(=O)NC(=N)N)cc3C(F)(F)F)CC2)nn1C`
115

I'd like to know its EC50. The compound in question is `N=C(N)NC(=O)c1ccc(C2CCN(C(=O)c3ccncc3)CC2)c(C(F)(F)F)c1`
70

I'd like to know its EC50. The compound in question is `N#Cc1cccc(C(=O)N2CCC(c3ccc(C(=O)NC(=N)N)cc3C(F)(F)F)CC2)c1`
111

I'd like to know its EC50. The compound in question is `N=C(N)NC(=O)c1ccc(C2CCN(C(=O)c3ccc(-n4ccnc4)cc3)CC2)c(C(F)(F)F)c1`
169

I'd like to know its EC50. The compound in question is `CCC(=O)N1CCC(c2ccc(C(=O)NC(=N)N)cc2S(C)(=O)=O)CC1`
266

I'd like to know its EC50. The compound in question is `CC(C)(C)C(=O)N1CCC(c2ccc(C(=O)NC(=N)N)cc2C(F)(F)F)CC1`
127
